target_entity: BaF3 (EGFR Del19) (Homo sapiens, UniProt P00533, cells depend on it, form not given)
Sequence (P00533 with tags, fused parts or gaps DEL746-750): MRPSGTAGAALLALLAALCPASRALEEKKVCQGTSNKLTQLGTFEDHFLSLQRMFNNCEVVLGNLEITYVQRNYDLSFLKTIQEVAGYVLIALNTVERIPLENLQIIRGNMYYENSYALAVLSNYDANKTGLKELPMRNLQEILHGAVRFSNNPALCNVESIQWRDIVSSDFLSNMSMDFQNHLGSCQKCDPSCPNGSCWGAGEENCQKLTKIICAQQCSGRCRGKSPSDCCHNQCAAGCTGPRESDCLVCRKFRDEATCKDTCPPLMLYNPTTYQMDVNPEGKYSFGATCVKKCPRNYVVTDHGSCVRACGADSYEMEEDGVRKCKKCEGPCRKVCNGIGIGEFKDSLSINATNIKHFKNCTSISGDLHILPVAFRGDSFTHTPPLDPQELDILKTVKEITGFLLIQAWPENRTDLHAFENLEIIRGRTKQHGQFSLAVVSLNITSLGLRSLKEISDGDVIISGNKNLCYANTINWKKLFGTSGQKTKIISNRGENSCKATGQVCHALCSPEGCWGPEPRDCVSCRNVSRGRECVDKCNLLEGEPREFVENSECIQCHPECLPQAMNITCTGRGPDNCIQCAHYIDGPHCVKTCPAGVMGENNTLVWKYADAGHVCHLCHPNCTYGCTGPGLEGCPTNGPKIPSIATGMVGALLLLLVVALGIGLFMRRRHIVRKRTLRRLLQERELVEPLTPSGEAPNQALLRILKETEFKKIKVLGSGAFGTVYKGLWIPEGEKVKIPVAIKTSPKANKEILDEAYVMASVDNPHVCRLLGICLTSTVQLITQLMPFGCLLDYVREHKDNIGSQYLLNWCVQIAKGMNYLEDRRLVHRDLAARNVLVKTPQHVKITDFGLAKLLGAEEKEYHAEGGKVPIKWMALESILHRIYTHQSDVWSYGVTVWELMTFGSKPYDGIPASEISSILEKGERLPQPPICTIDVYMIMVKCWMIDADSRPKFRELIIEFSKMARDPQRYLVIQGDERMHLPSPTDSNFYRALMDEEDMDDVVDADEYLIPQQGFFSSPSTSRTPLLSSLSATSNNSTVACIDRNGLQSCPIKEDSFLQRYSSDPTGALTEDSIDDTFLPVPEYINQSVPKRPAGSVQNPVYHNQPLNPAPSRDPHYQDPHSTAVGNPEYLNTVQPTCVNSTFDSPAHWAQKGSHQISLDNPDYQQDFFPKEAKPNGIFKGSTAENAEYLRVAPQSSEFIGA
experiment: Cell proliferation IC50 assay (Cell Titer GLO), BaF3 D cells
Type: cell-based, mouse
condition_context: Table 7, 72 h

{"columns": ["compound", "GI50, nM"],
 "data": [
  ["CCc1cc(Nc2ncc(-c3cnn(C)c3)c(Nc3ccccc3P(C)(C)=O)n2)c(OC)cc1N1CCC(N2CCN(CCOc3cccc4c3CN(C3CCC(=O)NC3=O)C4=O)CC2)CC1 (stereo not drawn)", 0.2],
  ["COc1cc(N2CCC(N3CCN(CCC#Cc4cccc5c4CN(C4CCC(=O)NC4=O)C5=O)CC3)CC2)c(C2CC2)cc1Nc1ncc(Cl)c(Nc2ccccc2P(C)(C)=O)n1 (stereo not drawn)", 6.1],
  ["CCc1cc(Nc2ncc(Cl)c(Nc3ccccc3P(C)(C)=O)n2)c(OC)cc1N1CCC(N2Cc3ccc(Oc4cccc5c4CN(C4CCC(=O)NC4=O)C5=O)cc3C2)CC1 (stereo not drawn)", 1.8]
]}

---

target_entity: BaF3 (EGFR L858R/C797S) (Homo sapiens, UniProt P00533, C797S/L858R, cells depend on it)
Sequence (P00533 whole entry C797S/L858R): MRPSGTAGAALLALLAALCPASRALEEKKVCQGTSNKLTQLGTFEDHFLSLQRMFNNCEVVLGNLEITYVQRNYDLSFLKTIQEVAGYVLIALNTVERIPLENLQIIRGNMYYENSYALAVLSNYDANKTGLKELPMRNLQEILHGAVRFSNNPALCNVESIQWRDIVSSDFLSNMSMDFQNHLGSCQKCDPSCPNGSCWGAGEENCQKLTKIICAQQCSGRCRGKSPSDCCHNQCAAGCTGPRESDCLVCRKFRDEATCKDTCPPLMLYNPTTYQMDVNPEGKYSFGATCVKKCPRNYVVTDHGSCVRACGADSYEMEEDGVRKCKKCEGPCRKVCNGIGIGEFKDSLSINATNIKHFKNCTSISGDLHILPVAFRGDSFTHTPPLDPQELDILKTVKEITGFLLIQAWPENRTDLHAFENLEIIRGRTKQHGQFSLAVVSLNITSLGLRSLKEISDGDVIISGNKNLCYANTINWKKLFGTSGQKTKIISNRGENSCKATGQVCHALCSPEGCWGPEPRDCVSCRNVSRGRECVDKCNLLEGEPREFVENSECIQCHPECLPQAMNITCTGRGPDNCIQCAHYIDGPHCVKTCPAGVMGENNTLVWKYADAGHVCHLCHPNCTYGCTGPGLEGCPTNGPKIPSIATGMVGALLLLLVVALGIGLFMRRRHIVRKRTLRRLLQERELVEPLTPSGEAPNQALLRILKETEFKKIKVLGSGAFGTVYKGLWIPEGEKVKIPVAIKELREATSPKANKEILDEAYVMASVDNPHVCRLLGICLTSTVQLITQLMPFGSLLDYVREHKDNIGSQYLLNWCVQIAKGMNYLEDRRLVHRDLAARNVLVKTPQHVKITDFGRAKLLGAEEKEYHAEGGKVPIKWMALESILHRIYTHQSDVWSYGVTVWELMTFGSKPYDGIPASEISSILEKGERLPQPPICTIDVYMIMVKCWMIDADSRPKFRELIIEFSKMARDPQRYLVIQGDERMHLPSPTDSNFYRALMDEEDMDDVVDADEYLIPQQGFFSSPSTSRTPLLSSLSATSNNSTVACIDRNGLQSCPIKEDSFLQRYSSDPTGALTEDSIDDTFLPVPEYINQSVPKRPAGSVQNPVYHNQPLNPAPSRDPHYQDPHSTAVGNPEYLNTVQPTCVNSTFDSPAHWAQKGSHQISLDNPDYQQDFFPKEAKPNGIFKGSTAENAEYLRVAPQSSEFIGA
experiment: Cell proliferation IC50 assay (Cell Titer GLO), BaF3 LC cells
Format: cell-based, mouse
condition_context: Table 7, 72 h
Define the label as YES when GI50 is strictly less than 30 nM and as NO in all remaining cases.

{"columns": ["compound", "target_entity", "assigned_label"],
 "data": [
  ["CCc1cc(Nc2ncc(Cl)c(Nc3ccccc3P(C)(C)=O)n2)c(OC)cc1N1CCC(N2Cc3ccc(Oc4cccc5c4CN(C4CCC(=O)NC4=O)C5=O)cc3C2)CC1 (centres unmarked)", "BaF3 (EGFR L858R/C797S) (Homo sapiens, UniProt P00533, C797S/L858R, cells depend on it)", "NO"],
  ["CCc1cc(Nc2ncc(Cl)c(Nc3ccccc3P(C)(C)=O)n2)c(OC)cc1N1CCC(N2CCN(CCOc3cccc4c3CN(C3CCC(=O)NC3=O)C4=O)CC2)CC1 (centres unmarked)", "BaF3 (EGFR L858R/C797S) (Homo sapiens, UniProt P00533, C797S/L858R, cells depend on it)", "YES"],
  ["CCc1cc(Nc2ncc(-c3cnn(C)c3)c(Nc3ccccc3P(C)(C)=O)n2)c(OC)cc1N1CCC(N2CCN(CCOc3cccc4c3CN(C3CCC(=O)NC3=O)C4=O)CC2)CC1 (centres unmarked)", "BaF3 (EGFR L858R/C797S) (Homo sapiens, UniProt P00533, C797S/L858R, cells depend on it)", "YES"],
  ["CCc1cc(Nc2ncc(Cl)c(Nc3ccccc3P(C)(C)=O)n2)c(OC)cc1N1CCC(N2CCN(CCCCCc3ccc4c(c3F)CN(C3CCC(=O)NC3=O)C4=O)CC2)CC1 (centres unmarked)", "BaF3 (EGFR L858R/C797S) (Homo sapiens, UniProt P00533, C797S/L858R, cells depend on it)", "YES"],
  ["COc1cc(N2CCC3(CCN(CCCC#Cc4cccc5c4CN(C4CCC(=O)NC4=O)C5=O)CC3)CC2)c(C)cc1Nc1ncc(Br)c(Nc2ccc3ccccc3c2P(C)(C)=O)n1 (centres unmarked)", "BaF3 (EGFR L858R/C797S) (Homo sapiens, UniProt P00533, C797S/L858R, cells depend on it)", "NO"],
  ["COc1cc(N2CCC(N3CCN(CCC#Cc4cccc5c4CN(C4CCC(=O)NC4=O)C5=O)CC3)CC2)c(C2CC2)cc1Nc1ncc(Cl)c(Nc2ccccc2P(C)(C)=O)n1 (centres unmarked)", "BaF3 (EGFR L858R/C797S) (Homo sapiens, UniProt P00533, C797S/L858R, cells depend on it)", "NO"],
  ["CCc1cc(Nc2ncc(Cl)c(Nc3ccccc3P(C)(C)=O)n2)c(OC)cc1N1CCC(N2CCN(CCC#Cc3cccc4c3CN(C3CCC(=O)NC3=O)C4=O)CC2)CC1 (single isomer, unassigned)", "BaF3 (EGFR L858R/C797S) (Homo sapiens, UniProt P00533, C797S/L858R, cells depend on it)", "YES"],
  ["CCc1cc(Nc2ncc(Cl)c(Nc3ccccc3P(C)(C)=O)n2)c(OC)cc1N1CCC2(CCN(CCCC#Cc3cccc4c3CN(C3CCC(=O)NC3=O)C4=O)CC2)CC1 (centres unmarked)", "BaF3 (EGFR L858R/C797S) (Homo sapiens, UniProt P00533, C797S/L858R, cells depend on it)", "NO"]
]}

---

Recorded pIC50 by entry
Test system: A431
experiment: Cell proliferation IC50 assay (Cell Titer GLO), A431 cells
Assay type: cell-based
condition_context: Homo sapiens, A-431; Table 5; A431, 72 h; read-out: A431 IC50
pIC50: −log10 of the molar value.
readout_label: pIC50

{"columns": ["molecule", "comparison_operator", "observed_result"],
 "data": [
  ["CCc1cc(Nc2ncc(Cl)c(Nc3ccccc3P(C)(C)=O)n2)c(OC)cc1N1CCC(N2CCN(CC#Cc3cccc4c3CN(C3CCC(=O)NC3=O)C4=O)CC2)CC1 (stereo not drawn) [Example E25]", "=", 5.90],
  ["COc1cc(N2CCC(N3CCN(CCC#Cc4cccc5c4CN(C4CCC(=O)NC4=O)C5=O)CC3)CC2)c(C2CC2)cc1Nc1ncc(Cl)c(Nc2ccccc2P(C)(C)=O)n1 (stereo not drawn) [Example E13]", "<", 5.40],
  ["CCc1cc(Nc2ncc(Cl)c(Nc3ccccc3P(C)(C)=O)n2)ccc1N1CCC(N2CCN(CCC#Cc3cccc4c3CN(C3CCC(=O)NC3=O)C4=O)CC2)CC1 (stereo not drawn) [Example E9]", "=", 6.41]
]}

---

Recorded GI50 by entry
target_entity: BaF3 (EGFR L858R) (Homo sapiens, UniProt P00533, L858R, cells depend on it)
Sequence (P00533 whole entry L858R): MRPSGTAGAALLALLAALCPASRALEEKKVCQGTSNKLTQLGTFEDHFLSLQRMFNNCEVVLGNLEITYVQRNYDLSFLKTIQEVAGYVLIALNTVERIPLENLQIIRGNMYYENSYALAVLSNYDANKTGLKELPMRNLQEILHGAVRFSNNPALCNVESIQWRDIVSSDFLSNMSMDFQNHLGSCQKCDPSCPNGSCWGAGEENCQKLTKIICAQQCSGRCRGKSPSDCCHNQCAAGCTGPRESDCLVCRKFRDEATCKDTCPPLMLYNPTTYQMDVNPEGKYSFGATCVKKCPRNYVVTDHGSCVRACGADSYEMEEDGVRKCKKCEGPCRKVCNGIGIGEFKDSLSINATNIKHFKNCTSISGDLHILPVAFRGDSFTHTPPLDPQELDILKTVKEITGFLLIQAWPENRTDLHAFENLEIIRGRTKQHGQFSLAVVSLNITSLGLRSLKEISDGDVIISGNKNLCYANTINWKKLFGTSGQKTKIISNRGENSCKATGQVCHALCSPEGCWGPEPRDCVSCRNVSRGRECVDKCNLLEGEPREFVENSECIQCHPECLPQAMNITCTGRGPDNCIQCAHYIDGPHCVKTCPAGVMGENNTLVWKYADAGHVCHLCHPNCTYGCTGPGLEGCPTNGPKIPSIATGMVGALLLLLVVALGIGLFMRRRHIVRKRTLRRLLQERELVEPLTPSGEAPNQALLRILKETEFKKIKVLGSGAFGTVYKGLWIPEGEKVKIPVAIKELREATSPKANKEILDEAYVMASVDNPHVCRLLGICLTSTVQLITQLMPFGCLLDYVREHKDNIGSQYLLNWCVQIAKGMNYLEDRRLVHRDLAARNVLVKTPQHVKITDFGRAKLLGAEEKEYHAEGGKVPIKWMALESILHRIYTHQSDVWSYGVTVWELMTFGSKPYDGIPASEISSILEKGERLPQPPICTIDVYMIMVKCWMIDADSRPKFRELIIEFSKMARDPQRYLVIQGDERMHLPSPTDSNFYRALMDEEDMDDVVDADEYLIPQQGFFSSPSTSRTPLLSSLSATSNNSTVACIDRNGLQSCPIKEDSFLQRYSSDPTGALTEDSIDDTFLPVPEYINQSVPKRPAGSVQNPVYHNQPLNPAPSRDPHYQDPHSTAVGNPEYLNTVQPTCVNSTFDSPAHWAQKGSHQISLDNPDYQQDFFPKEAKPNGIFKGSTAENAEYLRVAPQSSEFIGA
experiment: Cell proliferation IC50 assay (Cell Titer GLO), BaF3 L cells
Type: cell-based, mouse
condition_context: Table 7, 72 h
Method: IC50 of compounds in the present invention was determined by Cell Titer GLO reagent from Promega. The procedures are as follows: Tumor cells were cultured in specified medium in an incubator at 37° C. and 5% CO2. The cells were passaged periodically. […] The cell viability assay was performed by adding the detection reagents to the cell culture media according to Cell Titer GLO reagent instructions and detecting luminescent signals on an EnVision microplate reader (PerkinElmer). […]

{"columns": ["molecule", "measurement_unit", "GI50"],
 "data": [
  ["CCc1cc(Nc2ncc(Cl)c(Nc3ccccc3P(C)(C)=O)n2)c(OC)cc1N1CCC(N2Cc3ccc(Oc4cccc5c4CN(C4CCC(=O)NC4=O)C5=O)cc3C2)CC1 (centres unmarked) [Example E120]", "nM", 16.6],
  ["CCc1cc(Nc2ncc(Cl)c(Nc3ccccc3P(C)(C)=O)n2)c(OC)cc1N1CCC2(CCN(CCCC#Cc3cccc4c3CN(C3CCC(=O)NC3=O)C4=O)CC2)CC1 (centres unmarked) [Example E15]", "nM", 20.1],
  ["COc1cc(N2CCC3(CCN(CCCC#Cc4cccc5c4CN(C4CCC(=O)NC4=O)C5=O)CC3)CC2)c(C)cc1Nc1ncc(Br)c(Nc2ccc3ccccc3c2P(C)(C)=O)n1 (centres unmarked) [Example E12]", "nM", 37.8],
  ["COc1cc(N2CCC(N3CCN(CCC#Cc4cccc5c4CN(C4CCC(=O)NC4=O)C5=O)CC3)CC2)c(C2CC2)cc1Nc1ncc(Cl)c(Nc2ccccc2P(C)(C)=O)n1 (centres unmarked) [Example E13]", "nM", 23.5],
  ["CCc1cc(Nc2ncc(Cl)c(Nc3ccccc3P(C)(C)=O)n2)c(OC)cc1N1CCC(N2CCN(CCC#Cc3cccc4c3CN(C3CCC(=O)NC3=O)C4=O)CC2)CC1 (single isomer, unassigned) [Example E4]", "nM", 6.7],
  ["CCc1cc(Nc2ncc(Cl)c(Nc3ccccc3P(C)(C)=O)n2)c(OC)cc1N1CCC(N2CCN(CCOc3cccc4c3CN(C3CCC(=O)NC3=O)C4=O)CC2)CC1 (centres unmarked) [Example E95]", "nM", 6.6],
  ["CCc1cc(Nc2ncc(Cl)c(Nc3ccccc3P(C)(C)=O)n2)c(OC)cc1N1CCC(N2CCN(CCCCCc3ccc4c(c3F)CN(C3CCC(=O)NC3=O)C4=O)CC2)CC1 (centres unmarked) [Example E20]", "nM", 5.2],
  ["CCc1cc(Nc2ncc(-c3cnn(C)c3)c(Nc3ccccc3P(C)(C)=O)n2)c(OC)cc1N1CCC(N2CCN(CCOc3cccc4c3CN(C3CCC(=O)NC3=O)C4=O)CC2)CC1 (centres unmarked) [Example E158]", "nM", 0.6]
]}

---

target_entity: BaF3 (EGFR Del19/C797S) (Homo sapiens, UniProt P00533, C797S, cells depend on it, form not given)
Construct: BaF3 (EGFR Del19/C797S)|DC|RPMI1640 + 10% FBS
Sequence (P00533 with tags, fused parts or gaps DEL746-750/C797S, form open): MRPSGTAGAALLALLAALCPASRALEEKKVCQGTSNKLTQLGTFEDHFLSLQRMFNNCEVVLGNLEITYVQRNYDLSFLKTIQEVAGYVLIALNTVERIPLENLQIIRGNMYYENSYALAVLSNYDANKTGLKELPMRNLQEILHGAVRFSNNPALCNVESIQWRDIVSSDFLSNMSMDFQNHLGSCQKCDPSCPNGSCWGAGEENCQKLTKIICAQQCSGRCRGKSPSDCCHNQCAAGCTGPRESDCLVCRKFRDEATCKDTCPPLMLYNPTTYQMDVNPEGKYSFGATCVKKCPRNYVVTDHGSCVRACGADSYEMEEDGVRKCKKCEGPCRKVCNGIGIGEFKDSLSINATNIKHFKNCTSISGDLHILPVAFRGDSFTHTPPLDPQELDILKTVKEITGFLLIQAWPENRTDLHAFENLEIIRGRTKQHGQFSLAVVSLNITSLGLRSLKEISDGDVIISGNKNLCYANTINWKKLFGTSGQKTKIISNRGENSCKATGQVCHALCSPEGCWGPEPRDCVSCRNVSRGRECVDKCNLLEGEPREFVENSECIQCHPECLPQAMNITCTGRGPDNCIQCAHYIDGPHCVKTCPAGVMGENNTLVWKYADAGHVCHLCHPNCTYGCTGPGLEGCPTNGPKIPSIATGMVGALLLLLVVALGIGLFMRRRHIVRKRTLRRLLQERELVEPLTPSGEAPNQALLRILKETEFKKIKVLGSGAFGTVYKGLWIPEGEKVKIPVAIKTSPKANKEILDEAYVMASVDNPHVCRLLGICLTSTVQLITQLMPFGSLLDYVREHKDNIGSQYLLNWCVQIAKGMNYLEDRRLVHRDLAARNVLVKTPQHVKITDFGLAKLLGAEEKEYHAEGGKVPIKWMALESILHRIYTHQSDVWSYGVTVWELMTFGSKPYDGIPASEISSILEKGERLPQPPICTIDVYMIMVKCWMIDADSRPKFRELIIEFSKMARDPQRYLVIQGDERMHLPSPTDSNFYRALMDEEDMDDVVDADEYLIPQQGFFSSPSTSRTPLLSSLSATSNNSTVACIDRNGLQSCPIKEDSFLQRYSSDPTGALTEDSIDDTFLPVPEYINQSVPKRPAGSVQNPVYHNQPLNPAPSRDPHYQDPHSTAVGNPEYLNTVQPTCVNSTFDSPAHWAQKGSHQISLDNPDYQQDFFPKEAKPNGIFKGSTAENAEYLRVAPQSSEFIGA
experiment: Cell proliferation IC50 assay (Cell Titer GLO), BaF3 DC cells
Format: cell-based, mouse
condition_context: Table 6, 72 h
Recorded IC50 by entry

{"columns": ["molecule", "IC50 / nM"],
 "data": [
  ["COc1cc(C2CCN(C3CCN(CCCCOc4cccc5c4CN(C4CCC(=O)NC4=O)C5=O)CC3)CC2)c(OC)cc1Nc1ncc(Cl)c(Nc2ccccc2P(C)(C)=O)n1 (centres unmarked)", 5],
  ["COc1cc(N2CCC(N3CCC4(CCC(=Cc5cccc6c5CN(C5CCC(=O)NC5=O)C6=O)CC4)C3)CC2)c(C2CC2)cc1Nc1ncc(Cl)c(Nc2ccccc2P(C)(C)=O)n1 (centres unmarked)", 3.1],
  ["CCc1cc(Nc2nc(Nc3ccccc3P(C)(C)=O)c3cc[nH]c3n2)c(C)cc1N1CCC(N2CCN(CCCCOc3cccc4c3CN(C3CCC(=O)NC3=O)C4=O)CC2)CC1 (centres unmarked)", 8.1],
  ["CCc1cc(Nc2ncc(Cl)c(Nc3ccccc3P(C)(C)=O)n2)c(OC)cc1N1CCC(N2CCN(CCCCNc3cccc4c3CN(C3CCC(=O)NC3=O)C4=O)CC2)CC1 (centres unmarked)", 5.6],
  ["CCc1cc(Nc2ncc(Cl)c(Nc3ccccc3P(C)(C)=O)n2)c(OC)cc1N1CCC(N2CCN([C@H]3C[C@@H](Oc4cccc5c4CN(C4CCC(=O)NC4=O)C5=O)C3)CC2)CC1 (some centres unmarked)", 1.4]
]}
